# experimental system: T1r2a–T1r3:S300E mutant (Oryzias latipes)
# run description: cell-based
# Set-up: species or system medaka fish (Oryzias latipes)
# condition details: fitted parameter ± s.e. of Hill equation; intracellular Ca2+ elevation, HEK293; read-out: EC50 Receptor responses, T1r2a wt T1r3 S300E
Kindly state pEC50 for each of the entries shown.
Give bare numbers, as −log10 of the molar value.

INSERT INTO measurements (compound_structure, readout_number) VALUES
  ('NC(=O)CC[C@H](N)C(=O)O', 3.70);

Lookup: Give the measured pEC50 of C[C@H](N)C(=O)O .
Found: 2.74

---

# experimental system: T1r2a–T1r3LBD heterodimer (Oryzias latipes, UniProt A0A173M094+A0A173M0G2)
# run description: FRET signal change of T1r2aLBD-Cerulean and T1r3LBD-Venus heterodimer on amino acid binding
# condition details: read-out: EC50 FRET changes of LBD, T1r2aLBD wt T1r3LBD wt; fitted parameter ± s.e. of Hill equation, Fig. 2a; room temperature
result type: EC50

Lookup: Quick check: EC50 on T1r2a–T1r3LBD heterodimer (Oryzias latipes, UniProt A0A173M094+A0A173M0G2), item NCC(=O)O ?
Found: 6.18 mM

---

# experimental system: full-length T1r2a–T1r3 receptor (Oryzias latipes, UniProt A0A173M094+A0A173M0G2)
# Sequence (A0A173M0G2 entry or part of it): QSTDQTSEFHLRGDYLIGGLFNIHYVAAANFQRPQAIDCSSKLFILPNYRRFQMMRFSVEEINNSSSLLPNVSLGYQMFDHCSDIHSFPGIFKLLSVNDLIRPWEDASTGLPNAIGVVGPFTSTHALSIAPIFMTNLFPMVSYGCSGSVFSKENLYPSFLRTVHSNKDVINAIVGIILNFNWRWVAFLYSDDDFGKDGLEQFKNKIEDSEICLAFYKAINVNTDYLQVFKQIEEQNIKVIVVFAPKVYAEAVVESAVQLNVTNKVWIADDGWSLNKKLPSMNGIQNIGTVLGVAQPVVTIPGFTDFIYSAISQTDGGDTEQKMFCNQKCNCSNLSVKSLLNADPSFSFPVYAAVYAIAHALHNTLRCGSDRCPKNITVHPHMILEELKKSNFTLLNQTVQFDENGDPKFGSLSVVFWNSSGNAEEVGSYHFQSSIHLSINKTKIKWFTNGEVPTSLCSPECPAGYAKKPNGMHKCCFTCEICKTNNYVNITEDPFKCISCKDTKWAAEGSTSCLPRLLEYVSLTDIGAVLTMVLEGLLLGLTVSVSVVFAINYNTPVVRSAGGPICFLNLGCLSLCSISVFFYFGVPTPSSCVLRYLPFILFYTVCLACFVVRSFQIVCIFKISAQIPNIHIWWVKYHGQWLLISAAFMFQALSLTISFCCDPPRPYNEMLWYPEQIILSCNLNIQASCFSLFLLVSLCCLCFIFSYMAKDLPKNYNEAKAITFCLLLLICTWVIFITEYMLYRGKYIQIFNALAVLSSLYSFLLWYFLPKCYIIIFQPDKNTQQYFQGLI
# Sequence (A0A173M094 entry or part of it): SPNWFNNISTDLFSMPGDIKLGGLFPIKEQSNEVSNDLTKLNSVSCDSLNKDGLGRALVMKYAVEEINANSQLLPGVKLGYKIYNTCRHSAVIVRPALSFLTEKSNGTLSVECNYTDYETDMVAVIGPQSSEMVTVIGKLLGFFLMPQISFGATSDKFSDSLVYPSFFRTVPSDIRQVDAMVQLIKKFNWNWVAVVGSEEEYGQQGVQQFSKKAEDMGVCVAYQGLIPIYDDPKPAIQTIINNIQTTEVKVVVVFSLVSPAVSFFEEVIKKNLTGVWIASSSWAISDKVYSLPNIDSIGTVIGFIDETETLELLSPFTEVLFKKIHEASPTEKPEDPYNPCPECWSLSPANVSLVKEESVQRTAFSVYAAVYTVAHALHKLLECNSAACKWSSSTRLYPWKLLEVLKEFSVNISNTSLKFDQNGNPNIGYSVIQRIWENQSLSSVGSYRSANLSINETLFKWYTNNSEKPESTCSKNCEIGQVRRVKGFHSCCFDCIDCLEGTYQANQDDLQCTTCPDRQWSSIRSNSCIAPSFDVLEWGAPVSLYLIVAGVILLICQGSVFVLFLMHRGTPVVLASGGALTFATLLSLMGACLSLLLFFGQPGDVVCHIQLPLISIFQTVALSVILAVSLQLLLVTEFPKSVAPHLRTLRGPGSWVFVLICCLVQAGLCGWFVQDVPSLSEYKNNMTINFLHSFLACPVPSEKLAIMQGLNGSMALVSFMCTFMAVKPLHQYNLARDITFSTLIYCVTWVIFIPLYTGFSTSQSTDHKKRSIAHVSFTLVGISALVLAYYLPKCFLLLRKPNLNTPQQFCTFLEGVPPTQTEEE
# run description: Ca2+ flux assay of full-length receptor in HEK293 (Flip-In 293) cells
# Assay type: cell-based, medaka fish (Oryzias latipes)
result type: pEC50
Give bare numbers, as −log10 of the molar value.

Lookup: Give the measured pEC50 of N=C(N)NCCC[C@H](N)C(=O)O .
Found: 3.33

---

Kindly state pEC50 for each of the entries shown.
# experimental system: T1r2a–T1r3LBD heterodimer (Oryzias latipes, UniProt A0A173M094+A0A173M0G2)
# run description: FRET signal change of T1r2aLBD-Cerulean and T1r3LBD-Venus heterodimer on amino acid binding
One number for each entry, as −log10 of the molar value.

Sample records with pEC50:
INSERT INTO assay_data (compound, experimental_system, readout_number) VALUES
  ('N=C(N)NCCC[C@H](N)C(=O)O', 'T1r2a–T1r3LBD heterodimer (Oryzias latipes, UniProt A0A173M094+A0A173M0G2)', 3.72),
  ('NC(=O)CC[C@H](N)C(=O)O', 'T1r2a–T1r3LBD heterodimer (Oryzias latipes, UniProt A0A173M094+A0A173M0G2)', 4.94),
  ('C[C@H](N)C(=O)O', 'T1r2a–T1r3LBD heterodimer (Oryzias latipes, UniProt A0A173M094+A0A173M0G2)', 3.85);

Please look at the following compound next.
Lookup: Give the measured pEC50 of N[C@@H](CCC(=O)O)C(=O)O [L-Glutamate] .
Found: 2.97

---

# experimental system: T1r2a–T1r3:S300E mutant (Oryzias latipes)
# run description: cell-based
# Parameters: species or system medaka fish (Oryzias latipes)
result type: EC50 (mM)
Answers are plain numbers, in mM.

Lookup: Give the measured EC50 of N=C(N)NCCC[C@H](N)C(=O)O .
Found: 1.3

---

# experimental system: full-length T1r2a–T1r3 receptor (Oryzias latipes, UniProt A0A173M094+A0A173M0G2)
# run description: Ca2+ flux assay of full-length receptor in HEK293 (Flip-In 293) cells
# Format: cell-based, medaka fish (Oryzias latipes)
# condition details: fitted parameter ± s.e. of Hill equation, Fig. 2b; intracellular Ca2+ elevation, HEK293; read-out: EC50 Receptor responses, T1r2a wt T1r3 wt
result type: EC50 (µM)
One number for each entry, in µM.

INSERT INTO results (compound_structure, readout_number) VALUES
  ('C[C@H](N)C(=O)O', 2460);

Lookup: Give the measured EC50 of NC(=O)CC[C@H](N)C(=O)O .
Found: 70

---

# experimental system: full-length T1r2a–T1r3 receptor (Oryzias latipes, UniProt A0A173M094+A0A173M0G2)
# run description: Ca2+ flux assay of full-length receptor in HEK293 (Flip-In 293) cells
# Format: cell-based, medaka fish (Oryzias latipes)
# condition details: Fig. 2b, qualitative; tested up to 10 mM
# Experimental: The Ca^2+ flux assays were performed using a FLEX station 3 (Molecular Devices, LLC) for the cells loaded with 100 μl of Hank's balanced salt solution (Sigma-Aldrich), containing 5 μM of the calcium indicator dye Fluo8 NW (AAT Bioquest). […] The intensity of the response was represented as ΔRFU (delta relative fluorescence unit) defined as maximum fluorescence value for the taste substances minus that for the Hank's Balanced Salt Solution, and was plotted versus the ligand concentration. […]
result type: Response of the full-length receptor according to Ca2+-imaging

INSERT INTO assay_data (compound, result) VALUES
  ('NC(=O)CC[C@H](N)C(=O)O [L-Glutamine]', 'induced responses'),
  ('C[C@H](N)C(=O)O [L-Alanine]', 'induced responses'),
  ('N=C(N)NCCC[C@H](N)C(=O)O [L-Arginine]', 'induced responses');

Each recorded value in this set is attributed to paper PMC5457512.
